Tested on: LOC_OS01G10900-cb004
Experiment: thermal shift delta Tm vs DMSO control; higher = stronger stabilization (binding);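 further: purified Escherichia coli-expressed rice kinase domain construct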
Settings: 12.5 µM; protein concentration 2 µM
property_name: thermal shift delta Tm (°C)
State the answer as a number, implicitly in °C.

{"molecule": "Cn1cc(-c2ccc3nnc(C(F)(F)c4ccc5ncccc5c4)n3n2)cn1", "assay_target": "LOC_OS01G10900-cb004", "unit_abbrev": "°C", "thermal shift delta Tm": 5.11}
{"molecule": "Nc1[nH]nc2nnc(-c3c(-c4ccccc4)nn4ccccc34)cc12", "assay_target": "LOC_OS01G10900-cb004", "unit_abbrev": "°C", "thermal shift delta Tm": 0.36}
{"molecule": "CC[C@@H]1C(=O)N(C)c2cnc(Nc3ccc(C(=O)NC4CCN(C)CC4)cc3OC)nc2N1C1CCCC1", "assay_target": "LOC_OS01G10900-cb004", "unit_abbrev": "°C", "thermal shift delta Tm": -0.01}
{"molecule": "CC(=O)c1c(C)c2cnc(Nc3ccc(N4CCNCC4)cn3)nc2n(C2CCCC2)c1=O", "assay_target": "LOC_OS01G10900-cb004", "unit_abbrev": "°C", "thermal shift delta Tm": 0.47}
{"molecule": "CN1CCN(C2CCN(C(=O)Nc3cc(Oc4ccc(NC(=O)C5(C(=O)Nc6ccc(F)cc6)CC5)c(F)c4)ccn3)CC2)CC1 [Golvatinib (E7050)]", "assay_target": "LOC_OS01G10900-cb004", "unit_abbrev": "°C", "thermal shift delta Tm": 0.95}
{"molecule": "CS(=O)(=O)N1CCN(Cc2cc3nc(-c4cccc5[nH]ncc45)nc(N4CCOCC4)c3s2)CC1", "assay_target": "LOC_OS01G10900-cb004", "unit_abbrev": "°C", "thermal shift delta Tm": 0.85}
{"molecule": "Cc1ccc(NC(=O)c2cccc(C(C)(C)C#N)c2)cc1Nc1ccc2ncn(C)c(=O)c2c1", "assay_target": "LOC_OS01G10900-cb004", "unit_abbrev": "°C", "thermal shift delta Tm": 0.69}
{"molecule": "COc1cc2c(cc1OC)[C@@H]1C(=O)c3ccc4c(c3O[C@@H]1CO2)C=CC(C)(C)O4", "assay_target": "LOC_OS01G10900-cb004", "unit_abbrev": "°C", "thermal shift delta Tm": 0.52}

Value lookup for thermal shift delta Tm; key = N#CCNC(=O)c1ccc(-c2ccnc(Nc3ccc(N4CCOCC4)cc3)n2)cc1
1.02

Name the reported thermal shift delta Tm value associated with the molecule NC(=O)Nc1cc(-c2cccc(F)c2)sc1C(=O)N[C@H]1CCCNC1
0.3

Using the record for NC(=O)c1cnc2[nH]ccc2c1N[C@@H]1[C@@H]2CC3C[C@H]1C[C@@](O)(C3)C2 , report its thermal shift delta Tm.
1

# lookup: thermal shift delta Tm of CN(C[C@@H]1COCCO1)S(=O)(=O)Nc1ccc2ccc3ncc(-c4cnn(C)c4)cc3c(=O)c2c1
1.59

Item under review: Cc1nc(Nc2n[nH]c3c2CN(C(=O)N[C@H](CN(C)C)c2ccccc2)C3(C)C)c2sccc2n1 . Reported thermal shift delta Tm?
0.23

Need thermal shift delta Tm of Cc1c[nH]c2nc(Nc3ccc(N4CCN(C)CC4)c(F)c3)nc(-c3cccc(CC#N)c3)c12 , thanks.
3.64

====

Listing: thermal shift delta Tm of selected compounds
System: LOC_OS03G50450-cb001
Assay: thermal shift delta Tm vs DMSO control; higher = stronger stabilization (binding)
Conditions: 12.5 µM; protein concentration 2 µM
Give the number; °C is assumed, so skip it.

Look over these answered cases.
{"compound": "CC(C)(C)Cn1c(N)nc2ccc(-c3[nH]c(C(C)(C)C)nc3-c3ccc(F)cc3)nc21", "unit_abbrev": "°C", "readout_number": 0.23}
{"compound": "Clc1ccc(C2(c3ccc(-c4cn[nH]c4)cc3)CCNCC2)cc1", "unit_abbrev": "°C", "readout_number": 0.32}
{"compound": "CNC(=O)CN1CCC(Oc2cc3c(Nc4cccc(Cl)c4F)ncnc3cc2OC)CC1", "unit_abbrev": "°C", "readout_number": 0.05}
{"compound": "CCCCNc1ncc2c(-c3ccc(CN4CCN(C)CC4)cc3)cn([C@H]3CC[C@H](O)CC3)c2n1", "unit_abbrev": "°C", "readout_number": 6.64}
{"compound": "CONC(=O)c1ccccc1Nc1cc(Nc2cc(C)nn2C(C)C)ncc1Cl", "unit_abbrev": "°C", "readout_number": 0.47}

# get_value(readout='thermal shift delta Tm', item= O=c1sn(-c2cccc3ccccc23)c(=O)n1Cc1ccccc1 )
0.32

Entry CC(C)(C)c1cnc(CSc2cnc(NC(=O)C3CCNCC3)s2)o1 has what thermal shift delta Tm?
0.05

# lookup: thermal shift delta Tm of C=CC(=O)Nc1ccc(CN2C(=O)N(c3cc(OC)cc(OC)c3)Cc3cnc(Nc4ccc(N5CCN(C)CC5)cc4)nc32)cc1
0.33

Consider the compound shown here: O=C1CCc2c(Oc3ccc4c(c3)[C@@H]3[C@H](O4)[C@H]3c3nc4cc(C(F)(F)F)ccc4[nH]3)ccnc2N1 What is its recorded thermal shift delta Tm?
0.51

Bench note: what thermal shift delta Tm did Nc1nccc(Oc2ccc3c(C(=O)Nc4cccc(C(F)(F)F)c4)cccc3c2)n1 show?
-0.18

Param item = C1=N/C2=N/c3ccc(OCCN4CCCC4)c(c3)COC/C=C/COCc3cccc(c3)C(=C1)N2 [Pacritinib (SB1518)] ; retrieve measured thermal shift delta Tm.
3.76

Requested read-out: thermal shift delta Tm. Entry: Cc1ccc(-n2nc(C(C)(C)C)cc2NC(=O)Nc2ccc(OCCN3CCOCC3)c3ccccc23)cc1
0.1

Requested field: thermal shift delta Tm. Item: COc1ccc(C(=O)Nc2sc3c(c2C(N)=O)CCCC3)cc1OC
0.38

Recorded thermal shift delta Tm of C[C@H](Nc1ncnc2[nH]cnc12)c1cc2ccc(F)cc2nc1-c1ccccn1 , please.
0.69

Data request, read-out thermal shift delta Tm, for CN1CCN(c2nc(C3=C(c4c[nH]c5ccccc45)C(=O)NC3=O)c3ccccc3n2)CC1
0.36

Given O=C(c1ccc(F)c(F)c1Nc1ccc(I)cc1F)N1CC(O)([C@@H]2CCCCN2)C1 , state its recorded thermal shift delta Tm.
0.95

# input compound: COc1cc(N2CCC(N)CC2)ccc1Nc1ncc(Cl)c(-c2c[nH]c3ccccc23)n1 ; wanted: its thermal shift delta Tm
8.66

Reference for the values: the supplement of paper PMC9694430
